LD50 by entry:
system: resistant house fly, IX strain; experiment: Synergistic activity on resistant house fly, IX strain; type: in vivo, Musca domestica; conditions: active ingredient alone
Dear colleague, please return just the value in ng/fly, with no unit written.

Before answering, review these 2 worked examples.
{"molecule": "CNC(=O)O/N=C/C(C)(C)SC [ALDICARB, reference compound]", "property_name": "LD50", "number": 2104}
{"molecule": "CNC(=O)Oc1cccc2c1OC(C)(C)O2 [BENDIOCARB, reference compound]", "property_name": "LD50", "number": 100000}

Shift focus to the following entry.
Query: What value of LD50 on resistant house fly, IX strain does CNC(=O)ON=C(C)SC [METHOMYL, reference compound] have?
Reply: 851
